The measurements presented in this section are drawn from patent US12679822B2.

GI50: recorded values
TGT: BaF3 cell lines stably transfected with kinase EGFR Del/T790M (Homo sapiens, UniProt P00533, T790M, cells depend on it, form not given)
Sequence (P00533 with tags, fused parts or gaps DEL746-750/T790M, form open): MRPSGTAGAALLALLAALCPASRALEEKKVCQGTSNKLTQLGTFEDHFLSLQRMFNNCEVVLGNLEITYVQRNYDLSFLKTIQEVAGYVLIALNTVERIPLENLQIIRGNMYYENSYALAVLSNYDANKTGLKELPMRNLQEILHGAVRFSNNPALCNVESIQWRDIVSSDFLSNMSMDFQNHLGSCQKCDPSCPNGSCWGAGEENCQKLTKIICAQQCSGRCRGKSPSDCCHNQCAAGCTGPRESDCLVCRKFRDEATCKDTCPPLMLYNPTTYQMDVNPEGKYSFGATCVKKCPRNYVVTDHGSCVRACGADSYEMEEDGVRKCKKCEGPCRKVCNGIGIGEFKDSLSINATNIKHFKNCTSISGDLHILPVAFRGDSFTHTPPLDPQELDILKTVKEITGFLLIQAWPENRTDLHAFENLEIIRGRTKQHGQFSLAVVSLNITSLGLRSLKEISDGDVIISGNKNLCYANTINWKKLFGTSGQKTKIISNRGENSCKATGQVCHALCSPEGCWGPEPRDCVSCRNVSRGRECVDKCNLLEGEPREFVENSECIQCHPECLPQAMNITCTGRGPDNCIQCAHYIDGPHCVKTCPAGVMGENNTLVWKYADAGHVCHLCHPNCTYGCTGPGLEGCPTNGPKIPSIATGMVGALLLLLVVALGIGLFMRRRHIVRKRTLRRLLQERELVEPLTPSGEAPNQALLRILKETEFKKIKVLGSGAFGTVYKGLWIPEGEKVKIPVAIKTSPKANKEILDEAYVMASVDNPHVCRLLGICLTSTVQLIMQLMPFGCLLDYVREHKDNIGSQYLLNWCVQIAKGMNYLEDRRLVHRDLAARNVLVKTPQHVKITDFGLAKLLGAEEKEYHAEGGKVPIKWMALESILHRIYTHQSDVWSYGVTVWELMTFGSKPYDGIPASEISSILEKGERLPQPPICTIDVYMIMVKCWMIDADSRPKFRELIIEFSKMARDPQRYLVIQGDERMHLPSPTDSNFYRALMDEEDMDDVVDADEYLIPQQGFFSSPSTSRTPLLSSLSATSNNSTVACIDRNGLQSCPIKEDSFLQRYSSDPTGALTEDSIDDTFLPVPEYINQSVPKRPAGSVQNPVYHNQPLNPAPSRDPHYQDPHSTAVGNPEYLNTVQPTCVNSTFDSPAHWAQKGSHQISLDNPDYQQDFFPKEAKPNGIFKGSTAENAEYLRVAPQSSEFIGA
ASSAY PROTOCOL: Growth inhibition of BaF3 cell line stably transfected with kinase EGFR Del/T790M (MTS)
Assay type: cell-based
CONDITION SET: 48 h, read-out: growth inhibitory activity IC50, Del/T790M

A selection of reference data follows.
May I ask what GI50 has been recorded for C=Cc1cnc(Nc2cc(CC)c(N3CCC(N(C)C)C3)cc2OC)nc1Nc1ccc2nccnc2c1S(C)(=O)=O (stereo not shown) [III-3] ?
500 to 2500 nM

May I ask what GI50 has been recorded for C=Cc1cnc(Nc2ccc(N3CCC(N4CCN(C)CC4)CC3)cc2OC)nc1Nc1ccc2nccnc2c1S(=O)(=O)C(C)C [III-18] ?
500 to 2500 nM

May I ask what GI50 has been recorded for C=Cc1cnc(Nc2cc(CC)c(N3CCC(N4CCN(C)CC4)CC3)cc2OC)nc1Nc1ccc2nccnc2c1N(C1CC1)S(C)(=O)=O [II-14] ?
≤ 50 nM

Others:
May I ask what GI50 has been recorded for C=Cc1cnc(Nc2ccc(N3CCC(N4CCN(C)CC4)CC3)cc2OC)nc1Nc1ccc2nccnc2c1NS(=O)(=O)C(C)C [II-42] ?
500 to 2500 nM

* * *

TGT: BaF3 cell lines stably transfected with kinase EGFR L858R (Homo sapiens, UniProt P00533, L858R, cells depend on it)
Sequence (P00533 whole entry L858R): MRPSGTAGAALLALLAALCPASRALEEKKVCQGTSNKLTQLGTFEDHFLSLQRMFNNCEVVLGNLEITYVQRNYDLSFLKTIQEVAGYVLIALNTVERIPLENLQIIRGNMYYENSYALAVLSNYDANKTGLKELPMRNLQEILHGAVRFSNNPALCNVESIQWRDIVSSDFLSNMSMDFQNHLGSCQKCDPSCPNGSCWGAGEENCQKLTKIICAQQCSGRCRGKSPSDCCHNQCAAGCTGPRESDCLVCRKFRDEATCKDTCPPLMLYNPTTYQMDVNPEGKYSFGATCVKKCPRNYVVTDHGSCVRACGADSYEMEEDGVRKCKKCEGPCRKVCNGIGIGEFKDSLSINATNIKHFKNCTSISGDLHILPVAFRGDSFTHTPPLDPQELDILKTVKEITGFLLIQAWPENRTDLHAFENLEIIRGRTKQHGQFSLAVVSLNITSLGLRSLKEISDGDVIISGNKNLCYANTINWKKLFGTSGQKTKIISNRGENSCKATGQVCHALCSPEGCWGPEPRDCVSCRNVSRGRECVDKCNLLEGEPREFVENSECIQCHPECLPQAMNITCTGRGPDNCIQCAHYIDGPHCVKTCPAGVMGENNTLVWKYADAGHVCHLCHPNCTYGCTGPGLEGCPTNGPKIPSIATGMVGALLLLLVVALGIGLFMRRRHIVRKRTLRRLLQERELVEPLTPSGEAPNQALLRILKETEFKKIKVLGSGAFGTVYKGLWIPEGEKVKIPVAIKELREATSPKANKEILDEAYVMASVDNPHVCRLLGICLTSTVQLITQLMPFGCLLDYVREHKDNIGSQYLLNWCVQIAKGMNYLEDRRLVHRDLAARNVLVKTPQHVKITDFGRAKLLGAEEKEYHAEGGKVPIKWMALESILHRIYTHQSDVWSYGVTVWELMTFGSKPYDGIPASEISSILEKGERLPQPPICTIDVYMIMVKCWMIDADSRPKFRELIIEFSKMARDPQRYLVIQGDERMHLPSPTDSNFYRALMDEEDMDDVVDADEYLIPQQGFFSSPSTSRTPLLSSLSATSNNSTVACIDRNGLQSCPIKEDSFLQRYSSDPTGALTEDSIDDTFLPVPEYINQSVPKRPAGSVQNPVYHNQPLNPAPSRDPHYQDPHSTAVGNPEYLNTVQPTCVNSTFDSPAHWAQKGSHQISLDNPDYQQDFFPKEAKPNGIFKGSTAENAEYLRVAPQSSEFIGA
ASSAY PROTOCOL: Growth inhibition of BaF3 cell line stably transfected with kinase EGFR L858R (MTS)
Assay type: cell-based
CONDITION SET: 48 h, read-out: growth inhibitory activity IC50, L858R
Procedure: Biological Activity Assay: Growth Inhibitory Activity of Compounds on Cell Lines Stably Transfected with Kinase The activity of compounds against various mutants of kinase EGFR was evaluated by their effect of inhibiting growth of BaF3 cell lines stably transfected with kinase. […] 4) IC50 calculation: The semi-inhibitory concentration of the compounds acting on cells was calculated using GradPad Prism 5 software according to the measured cell growth inhibition rate.
GI50: recorded values

A selection of reference data follows.
May I ask what GI50 has been recorded for C=C(C)c1cnc(Nc2cc(C(C)C)c(N3CCC(N4CCN(C)CC4)CC3)cc2OC)nc1Nc1ccc2nccnc2c1N(C)S(C)(=O)=O ?
50 to 500 nM

May I ask what GI50 has been recorded for C=Cc1cnc(Nc2cc3c(cc2OC)CCN(C)C3)nc1Nc1ccc2nccnc2c1N(C)S(C)(=O)=O ?
500 to 2500 nM

Others:
May I ask what GI50 has been recorded for C=Cc1cnc(Nc2cc(CC)c(N3CCC(N(C)C)C3)cc2OC)nc1Nc1ccc2nccnc2c1S(C)(=O)=O (stereo not shown) ?
500 to 2500 nM

May I ask what GI50 has been recorded for C=Cc1cnc(Nc2cc(C)c(N3CCC(N4CCN(C)CC4)CC3)cc2OC)nc1Nc1ccc2nccnc2c1S(=O)(=O)NC(C)C ?
50 to 500 nM

* * *

TGT: BaF3 cell lines stably transfected with kinase EGFR Del (Homo sapiens, UniProt P00533, cells depend on it, form not given)
Sequence (P00533 with tags, fused parts or gaps DEL746-750): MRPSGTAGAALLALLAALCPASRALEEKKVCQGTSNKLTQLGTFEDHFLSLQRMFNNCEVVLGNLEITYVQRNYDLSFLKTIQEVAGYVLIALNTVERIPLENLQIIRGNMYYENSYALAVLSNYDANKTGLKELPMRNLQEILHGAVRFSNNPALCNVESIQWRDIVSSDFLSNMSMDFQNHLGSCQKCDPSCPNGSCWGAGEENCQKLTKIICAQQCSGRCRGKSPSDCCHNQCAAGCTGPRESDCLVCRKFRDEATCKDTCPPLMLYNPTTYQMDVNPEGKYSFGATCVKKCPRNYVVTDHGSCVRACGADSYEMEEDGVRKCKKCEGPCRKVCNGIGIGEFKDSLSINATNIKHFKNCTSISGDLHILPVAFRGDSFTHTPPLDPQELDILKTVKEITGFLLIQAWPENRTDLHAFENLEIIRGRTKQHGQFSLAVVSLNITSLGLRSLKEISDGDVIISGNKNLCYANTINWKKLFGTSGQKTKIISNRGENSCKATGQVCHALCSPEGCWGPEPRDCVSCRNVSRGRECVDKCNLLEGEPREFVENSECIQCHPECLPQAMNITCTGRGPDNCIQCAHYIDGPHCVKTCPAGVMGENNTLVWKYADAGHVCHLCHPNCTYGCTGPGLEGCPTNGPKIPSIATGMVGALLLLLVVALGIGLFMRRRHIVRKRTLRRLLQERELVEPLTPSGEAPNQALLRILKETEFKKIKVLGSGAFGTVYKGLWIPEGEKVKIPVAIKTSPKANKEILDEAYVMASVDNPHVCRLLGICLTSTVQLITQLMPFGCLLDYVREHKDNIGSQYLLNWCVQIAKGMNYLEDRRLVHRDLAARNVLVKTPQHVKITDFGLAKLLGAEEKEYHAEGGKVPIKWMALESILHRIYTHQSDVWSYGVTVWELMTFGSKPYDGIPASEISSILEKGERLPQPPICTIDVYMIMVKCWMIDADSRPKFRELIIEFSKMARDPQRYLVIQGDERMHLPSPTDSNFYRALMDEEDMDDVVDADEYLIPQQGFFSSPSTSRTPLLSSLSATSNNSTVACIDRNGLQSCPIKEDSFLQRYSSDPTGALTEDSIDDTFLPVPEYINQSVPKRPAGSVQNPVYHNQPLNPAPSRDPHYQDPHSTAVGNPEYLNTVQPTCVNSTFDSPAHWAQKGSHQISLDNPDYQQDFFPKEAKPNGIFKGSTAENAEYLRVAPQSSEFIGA
ASSAY PROTOCOL: Growth inhibition of BaF3 cell line stably transfected with kinase EGFR Del (MTS)
Assay type: cell-based
CONDITION SET: 48 h, read-out: growth inhibitory activity IC50, Del
GI50: recorded values

A selection of reference data follows.
May I ask what GI50 has been recorded for CCc1cc(Nc2ncc(/C=C/c3ccccc3)c(Nc3ccc4nccnc4c3N(C)S(C)(=O)=O)n2)c(OC)cc1N1CCC(N2CCN(C)CC2)CC1 ?
50 to 500 nM

May I ask what GI50 has been recorded for C=Cc1cnc(Nc2cc(CC)c(N3CCC(N4CCN(C)CC4)CC3)cc2OC)nc1Nc1ccc2nccnc2c1N(C1CC1)S(C)(=O)=O ?
≤ 50 nM

Now for a further compound.
May I ask what GI50 has been recorded for CCc1cc(Nc2ncc(/C=C/C3CC3)c(Nc3ccc4nccnc4c3N(C)S(C)(=O)=O)n2)c(OC)cc1N1CCC(N2CCN(C)CC2)CC1 ?
≤ 50 nM

* * *

GI50: recorded values
TGT: BaF3 cell lines stably transfected with kinase EGFR L858R (Homo sapiens, UniProt P00533, L858R, cells depend on it)
ASSAY PROTOCOL: Growth inhibition of BaF3 cell line stably transfected with kinase EGFR L858R (MTS)
Type: cell-based
CONDITION SET: 48 h, read-out: growth inhibitory activity IC50, L858R

May I ask what GI50 has been recorded for C=Cc1cnc(Nc2cc(CC)c(N3CCN(C)CC3)cc2OC)nc1Nc1ccc2nccnc2c1S(=O)(=O)NC ?
50 to 500 nM

May I ask what GI50 has been recorded for C=Cc1cnc(Nc2cn(CC)nc2C)nc1Nc1ccc2nccnc2c1N(C)S(C)(=O)=O [II-67] ?
50 to 500 nM

Others:
May I ask what GI50 has been recorded for C=Cc1cnc(Nc2cc(F)c(N3CCC(N4CCN(C)CC4)CC3)c(F)c2)nc1Nc1ccc2nccnc2c1S(=O)(=O)NC ?
50 to 500 nM

May I ask what GI50 has been recorded for C=Cc1cnc(Nc2cc(CC)c(N3CCC(N4CCN(C)CC4)CC3)cc2OC)nc1Nc1ccc2nccnc2c1P(C)(C)=O ?
≤ 50 nM

* * *

GI50: recorded values
TGT: BaF3 cell lines stably transfected with kinase EGFR Del/T790M (Homo sapiens, UniProt P00533, T790M, cells depend on it, form not given)
ASSAY PROTOCOL: Growth inhibition of BaF3 cell line stably transfected with kinase EGFR Del/T790M (MTS)
Format: cell-based
CONDITION SET: 48 h, read-out: growth inhibitory activity IC50, Del/T790M

A selection of reference data follows.
May I ask what GI50 has been recorded for C=Cc1cnc(Nc2cc(CC)c(N(C)CCN(C)C)cc2OC)nc1Nc1ccc2nccnc2c1N(C)S(C)(=O)=O [II-51] ?
50 to 500 nM

May I ask what GI50 has been recorded for C=Cc1cnc(Nc2cc(C)c(N3CCC(N4CCN(C)CC4)CC3)cc2OC)nc1Nc1ccc2nccnc2c1NS(C)(=O)=O [II-31] ?
≤ 50 nM

Others:
May I ask what GI50 has been recorded for C=Cc1cnc(Nc2cc(CC3CC3)c(N3CCC(N4CCN(C)CC4)CC3)cc2OC)nc1Nc1ccc2nccnc2c1P(C)(C)=O [Compound I-7] ?
≤ 50 nM

May I ask what GI50 has been recorded for C=Cc1cnc(Nc2cc(CC)c(N3CCC(N4CCN(C)CC4)CC3)nc2OC)nc1Nc1ccc2nccnc2c1P(C)(C)=O [Compound I-5] ?
≤ 50 nM

May I ask what GI50 has been recorded for C=Cc1cnc(Nc2cc(CC3CC3)c(N3CCC(N4CCN(C)CC4)CC3)cc2OC)nc1Nc1ccc2nccnc2c1S(C)(=O)=O [III-13] ?
50 to 500 nM

* * *

TGT: BaF3 cell lines stably transfected with kinase EGFR Del (Homo sapiens, UniProt P00533, cells depend on it, form not given)
ASSAY PROTOCOL: Growth inhibition of BaF3 cell line stably transfected with kinase EGFR Del (MTS)
Assay type: cell-based
CONDITION SET: 48 h, read-out: growth inhibitory activity IC50, Del
GI50: recorded values

A selection of reference data follows.
May I ask what GI50 has been recorded for C=Cc1cnc(Nc2cnn(C)c2)nc1Nc1ccc2nccnc2c1N(C)S(C)(=O)=O [II-65] ?
50 to 500 nM

May I ask what GI50 has been recorded for C=Cc1cnc(Nc2cc(C3CC3)c(N3CCC(N4CCN(C)CC4)CC3)cc2OC)nc1Nc1ccc2nccnc2c1S(=O)(=O)C(C)C [III-21] ?
50 to 500 nM

May I ask what GI50 has been recorded for C=Cc1cnc(Nc2cc(CC)c(N3CCC(N4CCN(C)CC4)CC3)cc2OC)nc1Nc1ccc2nccnc2c1NS(=O)(=O)C(C)C [II-44] ?
50 to 500 nM

May I ask what GI50 has been recorded for C=Cc1cnc(Nc2cc(C)n(C)n2)nc1Nc1ccc2nccnc2c1N(C)S(C)(=O)=O [II-62] ?
500 to 2500 nM

May I ask what GI50 has been recorded for C=Cc1cnc(Nc2ccc(N3CCC(N4CCN(C)CC4)CC3)c(F)c2F)nc1Nc1ccc2nccnc2c1S(=O)(=O)NC [IV-10] ?
50 to 500 nM

Others:
May I ask what GI50 has been recorded for CCc1cc(Nc2ncc(C3=CCCC3)c(Nc3ccc4nccnc4c3N(C)S(C)(=O)=O)n2)c(OC)cc1N1CCC(N2CCN(C)CC2)CC1 [II-27] ?
≤ 50 nM

May I ask what GI50 has been recorded for C=Cc1cnc(Nc2cccc(C3CCN(C)CC3)c2)nc1Nc1ccc2nccnc2c1P(C)(C)=O [Compound I-22] ?
50 to 500 nM

May I ask what GI50 has been recorded for C=Cc1cnc(Nc2cc(CC)c(N3CCC(N4CCN(C)CC4)CC3)cc2OC)nc1Nc1ccc2nccnc2c1S(=O)(=O)C(C)C [III-6] ?
50 to 500 nM

May I ask what GI50 has been recorded for C=Cc1cnc(Nc2cc(CC)c(N3CCC(N4CCN(C)CC4)CC3)cc2OC)nc1Nc1ccc2nccnc2c1S(=O)(=O)NC(C)C [IV-18] ?
50 to 500 nM

May I ask what GI50 has been recorded for C=Cc1cnc(Nc2ccc(N3CCC(N4CCN(C)CC4)CC3)c(CC)c2)nc1Nc1ccc2nccnc2c1P(C)(C)=O [Compound I-18] ?
50 to 500 nM

May I ask what GI50 has been recorded for C=C(C)c1cnc(Nc2ccc(N3CCC(N4CCN(C)CC4)CC3)nc2OC)nc1Nc1ccc2nccnc2c1P(C)(C)=O [Compound I-19] ?
≤ 50 nM

May I ask what GI50 has been recorded for C=Cc1cnc(Nc2cc(CC)c(N3CCC(N4CCN(C)CC4)CC3)cc2OC(F)(F)F)nc1Nc1ccc2nccnc2c1S(C)(=O)=O [III-5] ?
500 to 2500 nM

May I ask what GI50 has been recorded for C=Cc1cnc(Nc2cc(CC)c(N3CCC(N4CCN(C)CC4)CC3)cc2OC(F)(F)F)nc1Nc1ccc2nccnc2c1NS(C)(=O)=O [II-34] ?
50 to 500 nM

May I ask what GI50 has been recorded for C=Cc1cnc(Nc2cc3c(cc2F)CCN(C)C3)nc1Nc1ccc2nccnc2c1P(C)(C)=O [Compound I-23] ?
50 to 500 nM
